- Test system: nine cytochrome P450 enzymes
- assay_notes: Inhibitory potential against nine cytochrome P450 isoforms in human liver microsomes (summary statements)
- Format: in vitro ADME
- measurement_parameters: human, pooled human liver microsomes; pooled HLMs, all nine isoforms taken together; read-out: IC50 against the nine cytochrome P450 isoforms (summary bound)
measurement_name: IC50 at 10 min

## Task Input CCC(=O)N[C@@H](CC(C)C)C(=O)N[C@H](C)C(=O)N[C@@H]1Cc2ccc(cc2)Oc2cc(ccc2O)C[C@@H]2NC(=O)[C@H]([C@@H](C)CC)NC(=O)[C@H](CC(C)C)NC(=O)[C@@H](CC(C)C)NC(=O)[C@@H](NC1=O)[C@@H](C)OC2=O [Seongsanamide A] , output reported IC50 at 10 min.
## Result > 10 µM
